system_under_test: PK R510Q (Homo sapiens, UniProt P30613, R510Q)
Sequence (P30613 whole entry R510Q): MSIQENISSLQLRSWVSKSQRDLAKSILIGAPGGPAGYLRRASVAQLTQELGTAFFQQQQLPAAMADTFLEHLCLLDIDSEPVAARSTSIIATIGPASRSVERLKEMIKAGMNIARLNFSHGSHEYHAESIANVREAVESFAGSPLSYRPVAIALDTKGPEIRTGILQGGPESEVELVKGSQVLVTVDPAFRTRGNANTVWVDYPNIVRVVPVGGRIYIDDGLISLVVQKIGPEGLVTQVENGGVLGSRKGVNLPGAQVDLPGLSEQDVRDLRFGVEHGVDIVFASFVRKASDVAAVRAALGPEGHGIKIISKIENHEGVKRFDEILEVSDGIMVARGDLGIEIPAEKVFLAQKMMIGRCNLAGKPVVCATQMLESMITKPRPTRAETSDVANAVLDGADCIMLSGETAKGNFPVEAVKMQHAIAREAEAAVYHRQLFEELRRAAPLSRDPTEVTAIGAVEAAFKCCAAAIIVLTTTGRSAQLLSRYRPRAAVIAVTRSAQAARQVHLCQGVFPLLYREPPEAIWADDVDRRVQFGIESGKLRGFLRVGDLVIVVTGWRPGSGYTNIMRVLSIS
assay_protocol: PKR Mutant Assay (R510Q), LDH-coupled, absorbance 340 nm
Type: biochemical
experimental_parameters: mutant PKR R510Q enzyme activation
Protocol: PKR (WT or mutant) enzyme stock solution was diluted to prepare a 1.25× Reaction Mix (without ADP). 1 μL of test compound was first added to the wells followed by 40 μL of 1.25× Reaction Mix (without ADP) and incubated at room temperature (25° C.) for 60 min. The reaction was initiated with 10 μL ADP, bringing the final Reaction Mix to 1x, and the reaction progress was measured as changes in absorbance at 340 nm wavelength at room temperature. […]
observable: AC50

{"columns": ["molecule", "observable", "reported"],
 "data": [
  ["Cc1c2c(=O)n(Cc3cscn3)ncc2c2sc(Cc3cccc4c[nH]nc34)cn12", "AC50", "< 0.3 µM"],
  ["Cn1c2ccc([S+](C)[O-])cc2c2cnn(Cc3cccc(C(N)=O)c3)c(=O)c21 (centres unmarked)", "AC50", "> 0.8 µM"],
  ["COc1cccc(Cn2ncn3c(c(C)c4nc(C)sc43)c2=O)c1", "AC50", "> 0.8 µM"],
  ["COc1cccc(Cn2ncc3c(c(C(N)=O)n4cc(C)sc34)c2=O)c1", "AC50", "< 0.3 µM"]
]}

Kindly consider the entry below.
IN: Would you kindly share the measured AC50 for COc1cccc(Cn2ncc3c(c(C#N)n4cc(C)sc34)c2=O)c1 ?
OUT: < 0.3 µM
